Task for the reader: assign each of the following compounds its reported inhibition.
ASSAYED_SYSTEM: Microphthalmia-associated transcription factor (Homo sapiens) (UniProt O75030)
Sequence (O75030 whole entry, looked up): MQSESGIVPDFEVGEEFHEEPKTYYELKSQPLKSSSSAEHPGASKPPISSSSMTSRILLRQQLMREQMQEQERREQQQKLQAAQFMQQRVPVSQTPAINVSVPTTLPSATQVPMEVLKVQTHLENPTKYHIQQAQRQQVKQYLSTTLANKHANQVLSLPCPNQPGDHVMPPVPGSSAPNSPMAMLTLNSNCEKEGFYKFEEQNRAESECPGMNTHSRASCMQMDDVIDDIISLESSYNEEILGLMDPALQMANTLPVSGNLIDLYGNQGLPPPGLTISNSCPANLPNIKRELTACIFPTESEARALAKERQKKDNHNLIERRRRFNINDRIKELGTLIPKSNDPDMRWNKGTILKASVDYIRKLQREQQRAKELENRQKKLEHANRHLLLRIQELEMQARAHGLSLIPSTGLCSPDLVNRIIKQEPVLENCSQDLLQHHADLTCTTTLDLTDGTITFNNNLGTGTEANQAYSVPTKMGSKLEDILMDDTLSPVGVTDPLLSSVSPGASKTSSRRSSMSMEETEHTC
EXPERIMENT: MITF inhibitors, primary screen, biochemical, AlphaScreen, human (AID 1259374);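 further: 0% = vehicle wells with protein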
PARTICULARS: AlphaScreen MITF homodimerization, bead proximity signal; at 2.6 µM; stronger effect = higher value
Among all 650,000 compounds or so, about 5,900 (0.91%) were called active. The list comes from a sample in which actives are over-represented; it also holds close analogues and randomly drawn compounds.
Numbers only, in %.

INSERT INTO measurements (compound, assayed_system, value_measured) VALUES
  ('CCn1c(=O)n(CC2CS2)c2ccccc21 (stereo unspecified)', 'Microphthalmia-associated transcription factor (Homo sapiens) (UniProt O75030)', -0.54),
  ('Cc1cccc(-n2c(CN3C(=O)c4ccccc4C3=O)nc3ccccc3c2=O)c1', 'Microphthalmia-associated transcription factor (Homo sapiens) (UniProt O75030)', 8.78),
  ('N#CC1=C(N)Oc2c(c(=O)oc3ccccc23)C1c1ccc([N+](=O)[O-])s1 (stereo unspecified)', 'Microphthalmia-associated transcription factor (Homo sapiens) (UniProt O75030)', 2.54),
  ('Cc1cc(C=O)c(C)n1Cc1ccco1', 'Microphthalmia-associated transcription factor (Homo sapiens) (UniProt O75030)', 3.63),
  ('OC(CNC1CN2CCC1CC2)COc1cccc2ccccc12 (stereo unspecified)', 'Microphthalmia-associated transcription factor (Homo sapiens) (UniProt O75030)', 18.3);

Batch request: inhibition per item, same order as input.
1. CC(Cc1cccc(C(F)(F)F)c1)N1CCOCC1 (stereo unspecified)
2. CCOC(=O)C1=C(N)OC2=C(C(=O)CCC2)C12C(=O)Nc1ccc(Br)cc12 (stereo unspecified)
3. c1cc2c(cc1NC1=NCCCS1)OCCO2

Return:
[12.7, -1.67, 2.15]

====

ASSAYED_SYSTEM: Microphthalmia-associated transcription factor (Homo sapiens)
EXPERIMENT: MITF inhibitors, primary screen, biochemical, AlphaScreen, human (AID 1259374);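 further: 0% = vehicle wells with protein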
PARTICULARS: AlphaScreen MITF homodimerization, bead proximity signal; at 2.6 µM; stronger effect = higher value
Hit rate of the full screen: of about 650,000 compounds, about 5,900 (0.91%) were called active. Shown is part of a subset that was picked to be rich in actives.
MEASURE: inhibition (%)
Numbers only, in %.

INSERT INTO results (compound, units_symbol, value_measured) VALUES
  ('O=C(CN1CCCC1)c1ccccc1Br', '%', -5.43),
  ('CCCC1=C(C(=O)OC)C2(C(=O)Nc3ccccc32)C(C(=O)OCC)=C(N)O1 (stereo unspecified)', '%', 12),
  ('Cc1cc(C=C2C(=O)NC(=S)NC2=O)c(C)n1-c1ccccc1C(F)(F)F', '%', 8.02),
  ('CN1CN/C(=N\[N+](=O)[O-])N(Cc2ccco2)C1', '%', -9.51),
  ('FC1CC2C(Cl)C1NC2(C(F)(F)F)C(F)(F)F (stereo unspecified)', '%', -5.25);

Batch request: inhibition per item, same order as input.
1. O=C(CN1C2CCC1CC(O)(c1ccccn1)C2)N1c2ccccc2Sc2ccccc21 (stereo unspecified)
2. CCc1nc2ccccc2c(=O)n1-c1ccccc1

Return:
1: 44.9; 2: 10.7

====

ASSAYED_SYSTEM: Microphthalmia-associated transcription factor (Homo sapiens)
EXPERIMENT: MITF inhibitors, primary screen, biochemical, AlphaScreen, human (AID 1259374);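 further: 0% = vehicle wells with protein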
PARTICULARS: AlphaScreen MITF homodimerization, bead proximity signal; at 2.6 µM
The campaign covered roughly 650,000 compounds. About 5,900 (0.91%) were called active. No stated cut-off is given here; in the data, active means inhibition above about 50%; inactive means the rest. Many of the other results were omitted from the sample, so actives are more common in it than they were.
Thanks in advance; please answer with one of these: True for active, False for inactive

Enquiry: How did this test come out for CCOC(=O)C1C2NC(=S)NC1(C)Oc1c(OCC)cccc12 (centres undefined) ?
Return: False

Enquiry: How did this test come out for `C=CCN1C(=O)NC(=O)/C(=C/c2ccc3c(c2)OCO3)C1=O` ?
Return: False

====

ASSAYED_SYSTEM: Microphthalmia-associated transcription factor (Homo sapiens) (UniProt O75030)
EXPERIMENT: MITF inhibitors, primary screen, biochemical, AlphaScreen, human (AID 1259374);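 further: 0% = vehicle wells with protein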
PARTICULARS: AlphaScreen MITF homodimerization, bead proximity signal; at 2.6 µM; stronger effect = higher value
About 5,900 (0.91%) of roughly 650,000 compounds were called active. Many of the other results were omitted from the sample, so actives are more common in it than they were.
Threshold check on inhibition: at or above 50% gives satisfied, strictly below gives not satisfied.

Enquiry: Check this molecule for inhibition at or above 50%: `C(#CC1CC1)CN(C1CCCCC1)C1CCCCC1`
Return: satisfied

Enquiry: Check this molecule for inhibition at or above 50%: CC[C@@H](C)C(=O)O[C@H]1[C@H](O)[C@H]2[C@@H](CN3C[C@@H](C)CC[C@H]3[C@@]2(C)O)[C@@H]2C[C@]34O[C@]5(O)[C@@H](OC(=O)C(C)(O)C(C)O)CC[C@@]3(C)[C@@H]5[C@@H](OC(C)=O)[C@@H](OC(C)=O)[C@H]4[C@@]21O (stereo partly specified)
Return: not satisfied

Enquiry: Check this molecule for inhibition at or above 50%: `Cc1nc2ccccc2c(=O)n1-c1cccc(Cl)c1`
Return: not satisfied

Enquiry: Check this molecule for inhibition at or above 50%: `COc1cc(NC(=O)CCc2nc(C3=CCN(C)CC3)no2)cc(OC)c1OC`
Return: satisfied

Enquiry: Check this molecule for inhibition at or above 50%: `Cn1c(SCCOC(N)=O)nnc1-c1ccc([N+](=O)[O-])cc1`
Return: not satisfied

====

ASSAYED_SYSTEM: Microphthalmia-associated transcription factor (Homo sapiens)
EXPERIMENT: MITF inhibitors, primary screen, biochemical, AlphaScreen, human (AID 1259374);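 further: 0% = vehicle wells with protein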
PARTICULARS: AlphaScreen MITF homodimerization, bead proximity signal; at 2.6 µM
About 5,900 (0.91%) of roughly 650,000 compounds were called active. Rule as the data show it: active = inhibition above about 50%; inactive = the rest. Shown is part of a subset that was picked to be rich in actives.
Thanks in advance; please answer with one of these: label 1 (active), label 0 (inactive)

Before answering, review these 5 worked examples.
INSERT INTO measurements (molecule, label) VALUES
  ('COc1cc(CN2CCN(C)CC2)ccc1O', 'label 0'),
  ('COc1cc(CN2CCN(Cc3ccccc3)CC2)cc(I)c1O', 'label 0'),
  ('CC(Cc1ccccc1)NC(=O)/C=C/c1ccco1 (stereo not given)', 'label 0'),
  ('CCCC1(CCC)C(=O)NC(=Nc2ccc(OC)cc2)NC1=O', 'label 0'),
  ('COc1cc(CN2CCN(c3ccccc3)CC2)cc(OC)c1', 'label 0');

Enquiry: How did this test come out for `Cc1cccc(OCC(=O)N2CCN(Cc3ccccc3)CC2)c1C` ?
Return: label 0

Enquiry: How did this test come out for `Fc1ccc(N2CCN(Cc3ccccc3F)CC2)cc1` ?
Return: label 0

Enquiry: How did this test come out for CC12CCC(=O)C=C1CC[C@@H]1[C@@H]2CCC2(C)[C@@H](O)CC[C@@H]12 (stereo not given in full) ?
Return: label 0

Enquiry: How did this test come out for `COc1cccc(CN2CCN(C(=O)COc3ccccc3)CC2)c1OC` ?
Return: label 0

Enquiry: How did this test come out for `COc1ccc(CN2CCN(C(C)C)CC2)c(OC)c1OC` ?
Return: label 1

====

ASSAYED_SYSTEM: Microphthalmia-associated transcription factor (Homo sapiens)
EXPERIMENT: MITF inhibitors, primary screen, biochemical, AlphaScreen, human (AID 1259374);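 further: 0% = vehicle wells with protein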
PARTICULARS: AlphaScreen MITF homodimerization, bead proximity signal; at 2.6 µM; stronger effect = higher value
About 5,900 (0.91%) of roughly 650,000 compounds were called active. For the sample, actives were picked, then their nearest neighbours and some compounds at random.
MEASURE: inhibition (%)
One number for each entry, in %.

INSERT INTO assay_data (compound, units_symbol, value_measured) VALUES
  ('Cc1cnc2nc3c(cc2c1)CN(Cc1cccnc1)CC3', '%', -8.7),
  ('CS(=O)(=O)c1ccc(CC(=O)N2CCN(C(c3ccccc3)c3ccccc3)CC2)cc1', '%', 7.6),
  ('COC(NC(=O)c1ccco1)C(Cl)(Cl)Cl (stereo unspecified)', '%', 17.3),
  ('CN1C(=O)C(=Cc2cn(CC(=O)NCc3ccco3)c3ccccc23)C(=O)N(C)C1=O', '%', 0.24),
  ('c1cncc(CNCCc2c[nH]c3ccccc23)c1', '%', 84);

Turning now to a further compound:
inhibition value, target or system Microphthalmia-associated transcription factor (Homo sapiens), for `O=C1CN=C(c2ccc(Br)cc2)c2cc(Br)ccc2N1` : -2.48

====

Task for the reader: assign each of the following molecules its reported inhibition.
ASSAYED_SYSTEM: Microphthalmia-associated transcription factor (Homo sapiens)
EXPERIMENT: MITF inhibitors, primary screen, biochemical, AlphaScreen, human (AID 1259374);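 further: 0% = vehicle wells with protein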
PARTICULARS: AlphaScreen MITF homodimerization, bead proximity signal; at 2.6 µM; stronger effect = higher value
Screen size: about 650,000 compounds; about 5,900 (0.91%) were called active. Many of the other results were omitted from the sample, so actives are more common in it than they were.
Numbers only, in %.

Solved entries:
INSERT INTO measurements (molecule, measure, units_symbol, value_measured) VALUES
  ('Cn1ccnc1C1(O)CC2CCC(C1)N2CC(=O)N1CCc2ccccc2C1 (stereo not drawn)', 'inhibition', '%', 9.08),
  ('COc1ccc(Cl)cc1C(=O)C1CCCN(Cc2ncc[nH]2)C1 (stereo not drawn)', 'inhibition', '%', 7.6);

Turning now to a further molecule:
For reference, reported inhibition for `CC(C)CCn1c(=O)c(C(=O)Nc2nc3ccc(F)cc3s2)c(O)c2ccccc21` stands at 9.2
